- Assay target: T1, recombinant soluble cynomolgus TREM2 protein (cynomolgus TREM2 extracellular domain coupled to a Flag/His tag) (cynomolgus, UniProt A0A2K5UY34 49-204)
- T1 construct: extracellular domain; also called Cyno TREM2
- T1 sequence: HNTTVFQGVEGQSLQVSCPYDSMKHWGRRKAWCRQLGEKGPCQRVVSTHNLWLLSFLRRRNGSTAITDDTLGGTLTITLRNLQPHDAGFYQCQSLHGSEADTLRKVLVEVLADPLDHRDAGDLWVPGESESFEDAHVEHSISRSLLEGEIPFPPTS
- Measurement protocol: Octet BLI, antibody on anti-human Fc sensor, 25 C
- Experimental: To quantitate the binding affinity of agonist antibodies for human TREM2, association and dissociation rate constants as well as the equilibrium dissociation constant were determined using anti-human Fc (Kinetic) sensors on an Octet® HTX instrument (Pall ForteBio). […] The recombinant TREM2 proteins were allowed to associate with the antibody-loaded sensor for 10 minutes, and then dissociation was measured for 10 minutes. […]
Readout: Kd (nM)
// return numeric value only (unit: nM, not printed)

Below are worked cases with known answers.
Binder: 10E3 (antibody, human IgG2, V domains shown, human IgG2 from hybridoma) VH: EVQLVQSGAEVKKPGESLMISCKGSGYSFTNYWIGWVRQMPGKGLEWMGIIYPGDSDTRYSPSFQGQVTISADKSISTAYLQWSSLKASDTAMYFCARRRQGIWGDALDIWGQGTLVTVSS VL: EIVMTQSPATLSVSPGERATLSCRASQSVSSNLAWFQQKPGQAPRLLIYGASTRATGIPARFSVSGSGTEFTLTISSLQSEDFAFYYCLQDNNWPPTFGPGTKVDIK
Observed value: 11.3

Binder: 6E7 (antibody, human IgG2, V domains shown, human IgG2 from hybridoma) VH: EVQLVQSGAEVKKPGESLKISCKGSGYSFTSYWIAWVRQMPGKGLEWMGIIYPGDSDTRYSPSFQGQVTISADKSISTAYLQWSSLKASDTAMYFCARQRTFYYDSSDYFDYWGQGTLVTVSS VL: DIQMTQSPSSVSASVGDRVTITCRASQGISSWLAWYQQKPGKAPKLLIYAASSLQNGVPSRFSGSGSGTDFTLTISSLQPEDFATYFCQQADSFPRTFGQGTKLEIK
Observed value: 2.5

Let us examine a further case.
Problem: Give the measured Kd of 4G10 (antibody, human IgG2, V domains shown, human IgG2 from hybridoma) VH: EVQLVQSGAEVKKPGESLKISCKGSGYSFPSYWIAWVRQMPGKGLEWMGIIYPGDSDTRYSPSFQGQVTISADKSISTAFLKWSSLKASDTAMYFCARQGIEVTGTGGLDVWGQGTTVTVSS VL: DIQMTQSPSSLSASVGDRVTITCRASQGIRNDLGWYQQKPGNAPKRLIYAASSLPSGVPSRFSGSGSGPEFTLTISSLQPEDFATYYCLQHNSYPWTFGQGTKVEIT .
Result: 1.7
